System: Mycobacterium tuberculosis
Experiment Description: Antitubercular activity against Mycobacterium tuberculosis H37Rv ATCC 27294 assessed as growth inhibition after 24 hr by BACTEC-460 radiometric susceptibility assay
Format: functional
Measurement Parameters: H37Rv ATCC 27294, 24 h
MIC by entry:
Supply the numeric figure in µg/mL, leaving out any unit text.

Examples with their reported MIC follow.
input: Param item = `O=C(O[C@H]1CCC(=O)c2ccccc21)c1ccccc1` ; retrieve measured MIC.
output: 100

input: Find the recorded MIC belonging to `COc1cccc(C(=O)O[C@H]2CCC(=O)c3ccccc32)c1` and report it.
output: 100

input: State the recorded MIC for this entry: `CCCCCCCCCCCCCC(=O)O[C@H]1CCC(=O)c2ccccc21`
output: 50

Next:
input: Reported MIC, molecule `COc1cc(C(=O)O[C@H]2CCC(=O)c3ccccc32)cc(OC)c1OC` : ____
output: 100
